- protocol-details: physchem
- condition-description: water
Measured solubility values are reported for all entries that follow.

compound	units-symbol	solubility
COCCOc1c(OC)cc(Cc2cnc(N)nc2N)cc1OC [substance B]	µg/mL	8000
COc1cc(Cc2cnc(N)nc2N)cc(OC)c1OC	µg/mL	670
